Experiment: Plasma pharmacokinetics, Cycle 1 (LC-MS, non-compartmental)
Type: in vivo, human
Conditions: human, plasma, oral, 3 mg, Day 1; read-out: mean elimination half‐life (converted)
measurement_kind: half-life (h)
Give the quantity in h, number only.

Report half-life for CC(C)n1nc(-c2ccc3oc(N)nc3c2)c2c(N)ncnc21 please. 8.2

* * *

Assay: Plasma pharmacokinetics, Cycle 1 (LC-MS, non-compartmental)
Assay type: in vivo, human
Conditions: human, plasma, po, 3 mg, Cycle 1 Day 8; 3 mg daily oral; read-out: Half‐life, Mean ± SD (converted)
measurement_kind: half-life (h)
Reply with just the number (in h).

Entry CC(C)n1nc(-c2ccc3oc(N)nc3c2)c2c(N)ncnc21 has what half-life? 24.3
